Record form. Attribute: Sleeping time. Fill in for each entry.
System: Mus musculus
Assay: Compound was intravenously injected into Swiss Webstar mice tail vein, the sleeping time was recorded as the time elapsed from the loss of righting reflex
Assay type: functional

See these solved cases before continuing.
- MOLECULE: "NC(=O)C1=CN(CCC(NC(=O)[C@@H]2CCC(=O)N2)C(=O)N2CCC[C@H]2C(N)=O)C=CC1 (some centres undefined)"
  RESULT: "~45 min"
- MOLECULE: "NC(=O)C1=CN(CCC[C@H](NC(=O)[C@@H]2CCC(=O)N2)C(=O)N2CCC[C@H]2C(N)=O)C=CC1"
  RESULT: "~59 min"
- MOLECULE: "NC(=O)C1=CN(C[C@H](NC(=O)[C@@H]2CCC(=O)N2)C(=O)N2CCC[C@H]2C(N)=O)C=CC1"
  RESULT: "19.3 min"

Turning now to a further molecule:
Q. Tell me its Sleeping time given NC(=O)C1=CN(CCCCC(NC(=O)[C@@H]2CCC(=O)N2)C(=O)N2CCC[C@H]2C(N)=O)C=CC1 (some centres undefined) as the entry.
A. ~47 min
